system: A-375; assay: In vitro antitumor activity against A375cell line extracted form melanoma; assay type: functional, cell-based; conditions: Homo sapiens
Experimental readout: IC50 (nM)
# unit: nM | format: bare number

Looking for the measured IC50 of Nc1ccn(C2OC(CO)[C@@H](O)[C@H]2NO)c(=O)n1 (stereo partly specified) , can you help?
890

----------
tested on: COLO 320DM; experiment: In vitro antitumor activity against COLO 320DM cell line extracted form colon adenocarcinoma; format: functional, cell-based; conditions: Homo sapiens
Experimental readout: pIC50
Note on units: pIC50 is unitless, being -log10 of a concentration expressed in mol/L.

I have this compound here, Nc1ccn(C2OC(CO)[C@@H](O)[C@H]2NO)c(=O)n1 (stereo partly specified) , and I need its recorded pIC50.
5.05

// data source = ChEMBL document CHEMBL1130896
